System: Liver microsome
protocol-summary: Drug level in beagle dog liver microsomes treated with 10 uM 20(S)-ginsenoside Rh2 for 60 mins by MS2 spectra
Format: ADME, Canis lupus familiaris
experimental-parameters: 1 h
metric: Drug metabolism

Recorded results for 6 compounds are shown here.
{"compound": "C/C(=C\\CC[C@](C)(O)[C@H]1CC[C@]2(C)[C@@H]1[C@H](O)C[C@@H]1[C@@]3(C)CC[C@H](O[C@@H]4O[C@H](CO)[C@@H](O)[C@H](O)[C@H]4O)C(C)(C)[C@@H]3CC[C@]12C)C(=O)O", "value-reported": "metabolite_not_detected"}
{"compound": "C/C(=C/CC[C@](C)(O)[C@H]1CC[C@]2(C)[C@@H]1[C@H](O)C[C@@H]1[C@@]3(C)CC[C@H](O[C@@H]4O[C@H](CO)[C@@H](O)[C@H](O)[C@H]4O)C(C)(C)[C@@H]3CC[C@]12C)CO", "value-reported": "metabolite_detected"}
{"compound": "CC(O)(CO)[C@@H]1CC[C@@](C)([C@H]2CC[C@]3(C)[C@@H]2[C@H](O)C[C@@H]2[C@@]4(C)CC[C@H](O[C@@H]5O[C@H](CO)[C@@H](O)[C@H](O)[C@H]5O)C(C)(C)[C@@H]4CC[C@]23C)O1 (stereo partly drawn)", "value-reported": "metabolite_not_detected"}
{"compound": "C/C(=C\\CC[C@](C)(O)[C@H]1CC[C@]2(C)[C@@H]1[C@H](O)C[C@@H]1[C@@]3(C)CC[C@H](O[C@@H]4O[C@H](CO)[C@@H](O)[C@H](O)[C@H]4O)C(C)(C)[C@@H]3CC[C@]12C)CO", "value-reported": "metabolite_detected"}
{"compound": "CC(O)(CO)[C@H]1CC[C@@](C)([C@H]2CC[C@]3(C)[C@@H]2[C@H](O)C[C@@H]2[C@@]4(C)CC[C@H](O[C@@H]5O[C@H](CO)[C@@H](O)[C@H](O)[C@H]5O)C(C)(C)[C@@H]4CC[C@]23C)O1 (stereo partly drawn)", "value-reported": "metabolite_not_detected"}
{"compound": "CC1(C)O[C@H]1CC[C@](C)(O)[C@H]1CC[C@]2(C)[C@@H]1[C@H](O)C[C@@H]1[C@@]3(C)CC[C@H](O[C@@H]4O[C@H](CO)[C@@H](O)[C@H](O)[C@H]4O)C(C)(C)[C@@H]3CC[C@]12C", "value-reported": "metabolite_detected"}

What value of Drug metabolism has been recorded for this entry: `CC(C)(O)[C@@H]1CC[C@@](C)([C@H]2CC[C@]3(C)[C@@H]2[C@H](O)C[C@@H]2[C@@]4(C)CC[C@H](O[C@@H]5O[C@H](CO)[C@@H](O)[C@H](O)[C@H]5O)C(C)(C)[C@@H]4CC[C@]23C)O1`
metabolite_detected

Next: `CC1(C)[C@@H](O[C@@H]2O[C@H](CO)[C@@H](O)[C@H](O)[C@H]2O)CC[C@]2(C)[C@H]3C[C@@H](O)[C@@H]4[C@@H]([C@@](C)(O)CC[C@@H]5O[C@@]5(C)CO)CC[C@@]4(C)[C@]3(C)CC[C@@H]12`
metabolite_not_detected

###

System: Liver microsome
protocol-summary: Drug level in beagle dog liver microsomes treated with 10 uM 20(S)-ginsenoside Rh2 for 60 mins by MS2 spectra
Format: ADME, Canis lupus familiaris
experimental-parameters: 1 h
metric: Drug metabolism

{"compound": "CC1(C)[C@@H](O[C@@H]2O[C@H](CO)[C@@H](O)[C@H](O)[C@H]2O)CC[C@]2(C)[C@H]3C[C@@H](O)[C@@H]4[C@@H]([C@@](C)(O)CCC=C(CO)CO)CC[C@@]4(C)[C@]3(C)CC[C@@H]12", "metric": "Drug metabolism", "value-reported": "metabolite_detected"}
{"compound": "C/C(=C/CC[C@](C)(O)[C@H]1CC[C@]2(C)[C@@H]1[C@H](O)C[C@@H]1[C@@]3(C)CC[C@H](O[C@@H]4O[C@H](CO)[C@@H](O)[C@H](O)[C@H]4O)C(C)(C)[C@@H]3CC[C@]12C)C(=O)O", "metric": "Drug metabolism", "value-reported": "metabolite_not_detected"}
{"compound": "CC(C)(O)[C@H]1CC[C@@](C)([C@H]2CC[C@]3(C)[C@@H]2[C@H](O)C[C@@H]2[C@@]4(C)CC[C@H](O[C@@H]5O[C@H](CO)[C@@H](O)[C@H](O)[C@H]5O)C(C)(C)[C@@H]4CC[C@]23C)O1", "metric": "Drug metabolism", "value-reported": "metabolite_detected"}
{"compound": "CC(C)(O)C(CC[C@](C)(O)[C@H]1CC[C@]2(C)[C@@H]1[C@H](O)C[C@@H]1[C@@]3(C)CC[C@H](O[C@@H]4O[C@H](CO)[C@@H](O)[C@H](O)[C@H]4O)C(C)(C)[C@@H]3CC[C@]12C)SC[C@H](NC(=O)CC[C@H](N)C(=O)O)C(=O)NCC(=O)O (some centres undefined)", "metric": "Drug metabolism", "value-reported": "metabolite_not_detected"}
